# PROTOCOL TEXT: Toxicity liver stage against HepG2, at 10uM
# Format: cell-based
# Design: test concentration 10 uM, cell line HepG2-A16-CD81EGFP
# COND: human, HepG2-A16-CD81EGFP cells; read-out: INHIBITION
ASSAY READOUT: cytotoxicity at 10 µM (%)
Numbers only, in %.

// solved cases for cytotoxicity at 10 µM follow
{"MOLECULE": "CCN1CCCC1CNC(=O)CCSc1ccc2c(c1)OCCO2 (centres undefined)", "UNIT ABBREVIATION": "%", "cytotoxicity at 10 µM": -1.58}
{"MOLECULE": "CN1CCC(Oc2ccc(NC(=O)c3cccc(Cl)c3)cc2)CC1", "UNIT ABBREVIATION": "%", "cytotoxicity at 10 µM": -8.45}
{"MOLECULE": "O=C1CSC(c2ccc(Cl)cc2Cl)c2c(n(C3CCOCC3)[nH]c2=O)N1 (centres undefined)", "UNIT ABBREVIATION": "%", "cytotoxicity at 10 µM": -7.92}
{"MOLECULE": "O=C(c1ccc(-n2cc(Br)cn2)cc1)N1CCN(c2cnccn2)CC1", "UNIT ABBREVIATION": "%", "cytotoxicity at 10 µM": 1.52}
{"MOLECULE": "CN1C[C@@H](F)[C@@H](OCc2nc3ccccc3[nH]2)C1", "UNIT ABBREVIATION": "%", "cytotoxicity at 10 µM": 5.34}

# batch: return cytotoxicity at 10 µM for each of the 4 molecules below
1. CSCCc1n[nH]c2c1CN(S(=O)(=O)c1cn(C)c(C)n1)CC2
2. Cc1n[nH]c(C)c1NC(=O)CN1CCn2c(nnc2C(C)C)C1
3. CNC(=O)[C@H]1C[C@@H]2CN(C(=O)c3ccoc3)C[C@@H]2N1S(C)(=O)=O
4. CCc1ncc(C(=O)N(CCOC)Cc2ccccc2F)cn1

[8.58, -1.03, -3.88, 0.728]

Kindly give each listed record's cytotoxicity at 10 µM.
1. Cn1ccnc1CN1CCN(CCOc2ccccc2F)CC1
2. COc1cccc(CNc2nc(O)cc(C3CC(=O)N(C)C3)n2)c1 (centres undefined)
3. CC(=O)N1CCCC2(CCN(c3nncs3)C2)C1 (centres undefined)

-10.9
-2.24
-103

Hello, I would appreciate it if you could give cytotoxicity at 10 µM for each entry below.
1. COc1ccc(CC(=O)Nc2ccc3ncn(C(C)C)c(=O)c3c2)cc1
2. Cc1ncsc1C(=O)NCc1cccs1

3.97
-1.89

====

# PROTOCOL TEXT: Toxicity liver stage against HepG2, at 10uM
# Type: cell-based
# Set-up: test concentration 10 uM, cell line HepG2-A16-CD81EGFP
# COND: human, HepG2-A16-CD81EGFP cells; read-out: INHIBITION
ASSAY READOUT: cytotoxicity at 10 µM (%)
Answers are plain numbers, in %.

{"MOLECULE": "CCC(NC(=O)NCc1ccoc1C)c1c(C)nn(C)c1C (stereo unspecified)", "UNIT ABBREVIATION": "%", "cytotoxicity at 10 µM": -1.44}
{"MOLECULE": "CCNc1ncc(C(=O)N2CCOC(CCCC(C)C)C2)cn1 (stereo unspecified)", "UNIT ABBREVIATION": "%", "cytotoxicity at 10 µM": 10.3}
{"MOLECULE": "COc1ccc(C2CCCN2S(=O)(=O)c2cc(F)ccc2F)cc1 (stereo unspecified)", "UNIT ABBREVIATION": "%", "cytotoxicity at 10 µM": 0.585}
{"MOLECULE": "CSCC(C)N(C)S(=O)(=O)c1ccc(Cl)cc1C#N (stereo unspecified)", "UNIT ABBREVIATION": "%", "cytotoxicity at 10 µM": -41.5}
{"MOLECULE": "CCCc1cncnc1N1CCC(NCCc2ccc(O)cc2)CC1", "UNIT ABBREVIATION": "%", "cytotoxicity at 10 µM": 2.47}
{"MOLECULE": "COCCN(C(=O)c1cc(-c2ccc(C)s2)[nH]n1)C1CC1", "UNIT ABBREVIATION": "%", "cytotoxicity at 10 µM": 11.6}
{"MOLECULE": "O=C(CCC1CCN(C(=O)c2cc[nH]c2)CC1)NCc1cccc(Cl)c1", "UNIT ABBREVIATION": "%", "cytotoxicity at 10 µM": -2.11}
{"MOLECULE": "COCC1(CNC(=O)[C@@]23CNC[C@@H]2CN(C2CCCC2)C3)CC1", "UNIT ABBREVIATION": "%", "cytotoxicity at 10 µM": -11.9}

Quick request: cytotoxicity at 10 µM for each listed item, please.
1. c1cncc(CN2CCCC3(COCCN(c4cnccn4)C3)C2)c1 (stereo unspecified)
2. CN(C)S(=O)(=O)N1CCN(CC2CCOc3ccccc3C2)CC1 (stereo unspecified)
3. Cc1cnn(CCC(=O)N2CCCC(c3noc(C)n3)C2)c1 (stereo unspecified)

-0.0653
-0.529
-3.98

====

# PROTOCOL TEXT: Toxicity liver stage against HepG2, at 10uM
# Type: cell-based
# Parameters: test concentration 10 uM, cell line HepG2-A16-CD81EGFP
# COND: human, HepG2-A16-CD81EGFP cells; read-out: INHIBITION
Please go through the items and note down their cytotoxicity at 10 µM.
Numbers only, in %.

{"COMPOUND": "OC1(CNc2ccccc2)CCNCC1", "cytotoxicity at 10 µM / %": -1.9}
{"COMPOUND": "CCc1nc(CN2CCCC(NCc3cnc(C)s3)C2)no1 (configuration not stated)", "cytotoxicity at 10 µM / %": -9.26}
{"COMPOUND": "Cc1nc2c(c(=O)n1C)CN(C(=O)C1CCCN(C(=O)N(C)C)C1)C2 (configuration not stated)", "cytotoxicity at 10 µM / %": -5.18}

Please state, for each entry, its recorded cytotoxicity at 10 µM.
1. Cc1ccccc1SC1CCN(C(=O)C2[C@H]3CNC[C@@H]23)CC1 (some centres not stated)
2. CCC[C@H]1CN(c2cncc(C(=O)N(C)C)n2)C[C@@H]1N(C)C
3. CS(=O)(=O)c1ccccc1C(=O)NCCCN1CCc2ccccc2C1
4. COc1cc(CCC(=O)NC2CCCN(C)C2)ccc1OCC(F)(F)F (configuration not stated)
5. CNC1CCC2(CC1)CNC(=O)c1cc(C)ccc1O2 (configuration not stated)
6. Cc1ccc2c(n1)N(CC(C)C)CCN(C(=O)Cc1ccccn1)C2
7. Cc1cc2ccccc2n1CCC(=O)N1CCCC(O)(CN(C)C)CC1 (configuration not stated)

-10.1
-7.83
1.01
-4.54
-9.28
12.7
-1.88

Batch request: cytotoxicity at 10 µM for each of the following compounds.
1. CN(C)c1nccc(N(C)C2CCN(CC3CCOC3)CC2)n1 (configuration not stated)
2. O=c1cc(Cn2ccnc2)nc2n1CCCN(Cc1ccc(F)cc1)C2
3. CC(=O)N1CCC(Oc2ccc(C#N)cn2)CC1
4. Cc1cc(N2CCC(N(C)C(=O)c3ccc(C#N)cc3)CC2)nc(C)n1
5. Cn1ccnc1CCNC(=O)NCCC1CCCCO1 (configuration not stated)

1. -18.9
2. 7.17
3. -17.3
4. 26.7
5. -1.94

====

# PROTOCOL TEXT: Toxicity liver stage against HepG2, at 10uM
# Type: cell-based
# Set-up: test concentration 10 uM, cell line HepG2-A16-CD81EGFP
# COND: human, HepG2-A16-CD81EGFP cells; read-out: INHIBITION
What cytotoxicity at 10 µM was measured for each of the following?
Answers are plain numbers, in %.

Consider the worked cases shown below.
{"COMPOUND": "NCc1cn(CC2CCCN(C(=O)CC3=CCCCC3)C2)nn1 (stereo not given)", "UNIT ABBREVIATION": "%", "READOUT NUMBER": 1.46}
{"COMPOUND": "[O-][S+](CCN1CCc2[nH]nc(C(F)(F)F)c2C1)c1ccccc1 (stereo not given)", "UNIT ABBREVIATION": "%", "READOUT NUMBER": -9.92}
{"COMPOUND": "O=C(NCc1ccco1)c1cc[n+]([O-])cc1", "UNIT ABBREVIATION": "%", "READOUT NUMBER": 3.33}
{"COMPOUND": "Cc1ccc(N2CCCc3sc(C(=O)NCc4ccc(C)o4)nc32)nn1", "UNIT ABBREVIATION": "%", "READOUT NUMBER": 4.93}

I have 5 compounds here; please give me cytotoxicity at 10 µM for each one.
1. CN(Cc1cnn(C)c1)C(=O)c1cc2ccccc2c(=O)[nH]1
2. O=C(NCCNc1ncccn1)C1CCN(C(=O)c2ccoc2)CC1
3. CCOC(=O)c1ccc(NC(=O)c2cc3c([nH]c2=O)CCCC3)cc1
4. CNC(=O)c1ccc(CNC(=O)c2ccc(Cl)cc2F)cc1
5. CCc1nc2n(n1)CC(Nc1cc(C)nc3ncnn13)CC2 (stereo not given)

1: -5.64; 2: -12.6; 3: 9.13; 4: 5.66; 5: -9.91

Lab note: measured cytotoxicity at 10 µM of O=C(C1CCOc2ccccc21)N1CCOc2cccc(F)c21 (stereo not given) was 4.52

Taken from ChEMBL document CHEMBL4513216.
